Data credit: patent US20240252641A1

Biological target: T1, human CD70, recombinant, N-terminally biotinylated (residues 39-193) (human, UniProt P32970 39-193, N-terminal biotin)
T1 construct: range 39-193; the same entry is used there; also called biotinylated human CD70; CD70 biotin
T1 sequence (looked up): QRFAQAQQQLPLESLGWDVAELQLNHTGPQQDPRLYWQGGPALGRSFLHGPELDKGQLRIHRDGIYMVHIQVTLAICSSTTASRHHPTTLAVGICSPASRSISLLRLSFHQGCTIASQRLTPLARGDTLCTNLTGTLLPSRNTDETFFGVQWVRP
Test: CD27 blocking ELISA, 3 µM scFv, strep/HRP

Binder	strep/HRP
14-TC4-XIII-A01 (scFv, His-tagged) scFv: QVQLVQSGAEVKKPGASVKVSCKASGYTFTGYYMNWVRQAPGQGLEWMAWINPNTGDTNYAQKFQGRVTMTRDTSINTAYIELSRLTSDDTAVYYCARVGDYYDRSGYYRHDAFDIWGQGTMVTVSSGGSGGSGGSGGSSSELTQDPAVSVALGQTVRITCQGDSLRSYYASWYQQKPGQAPVLVIYGKNNRPSGIPDRFSGSSSGNTASLTITGAQAMDEADYYCQAWDSSTGVVFGGGTKVTVL	1.46
38-TC7-V-G06 (scFv, His-tagged) scFv: QMQLVQSGAEVKKPGSSVKVSCKASGGTFSSYAISWVRQAPGQGLEWMGWISAYNGNTNYAQKLQGRVTMTTDTSTSTAYMELRSLRSDDTAVYYCARDDYWGQGTLVTVSSGGSGGSGGSGGSSYELTQPPSVSVAPGKTARITCSGDVLGENYADWYQQKPGQAPELVIYEDSERYPGIPERFSGSTSGNTTTLTISRVLTEDEADYYCLSGDEDNRVFGGGTKLTVL	1.53
15-TC7-I-D07 (scFv, His-tagged) scFv: QVQLQQWGAGLLKPSETLSLTCAVYGGSFSGYYWSWIRQPPGKGLEWIGEINHSGSTNYNPSLKSRVTISVDTSKNQFSLKLSSVTAADTAVYYCARVSRSRGAFDIWGQGTMVTVSSGGSGGSGGSGGSQSALTQPASVSGSPGQSITISCTGTNSDVGAYNYVSWYQQHPGKAPKLMIYEVTNRPSGVSNRFSGSKSGNTASLTISGLQAEDEADYYCSSYTSSGTWVFGGGTKLTVL	1.45
